target: human N-terminally GST tagged ASC^PYD (human, UniProt Q9ULZ3 1-106); assay: FP
Sequence (Q9ULZ3 1-106): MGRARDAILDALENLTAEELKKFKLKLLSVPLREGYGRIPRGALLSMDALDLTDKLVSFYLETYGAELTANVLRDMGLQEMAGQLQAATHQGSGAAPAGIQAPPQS
Bridge positions count the residues as written; N and C are the ends. Square brackets hold non-standard residues; d marks the D form. Primed or numbered codes have the meaning given here. S5 = C=CCCC[C@](C)(N)C(=O)O; Nle = CCCC[C@H](N)C(=O)O; FITC′ = fluorescein; βAla = NCCC(=O)O
Quantity name: Kd

For orientation, consider the following solved cases.
Binder | Quantity name | Obs value
{FITC′}-[βAla]Q[S5]LRK[S5]QWKLWTA-NH2 (staple 3-7) [fSAH-POP1-12] | Kd | 0.59 µM
AQXLKKXKXKLGTA (N-terminal fluorescein (FITC) on β-alanine; S5 = (S)-2-(4-pentenyl)alanine residues covalently linked (hydrocarbon staple); made on Rink amide resin) [fSAH-POP1-5] | Kd | > 10 µM
{FITC′}-[βAla]EELKKFK[Nle]KLGTV-NH2 [fPOP1-H2] | Kd | > 10 µM

Let us move to another entry and its Kd.
Looking for the measured Kd of AEXLKKXKXKLGTV (N-terminal fluorescein (FITC) on β-alanine; S5 = (S)-2-(4-pentenyl)alanine residues covalently linked (hydrocarbon staple); made on Rink amide resin) [fSAH-POP1-4] , can you help?
> 10 µM
